# EXPERIMENT_NOTES: Caco-2 permeation assay (Method 5)
# Type: in vitro ADME
# SETTINGS: human, pH 7.2; Caco-2, 2 μM test compound, 2 h; read-out: Papp A−B (Mari)
ASSAY_READOUT: Papp A→B at 2 h, 2 µM (nm/s)
Numbers only, in nm/s.

Example cases with answers are listed next.
{"columns": ["COMPOUND", "VALUE_MEASURED"],
 "data": [
  ["COc1cc(F)ccc1-c1nc(Nc2cc(F)cc(CS(C)(=N)=N)c2)ncc1F", 50],
  ["CS(=N)(=N)Cc1cc(Nc2ncc(F)c(-c3ccc(F)cc3F)n2)cc(S(F)(F)(F)(F)F)c1", 32.1],
  ["COc1cc(F)ccc1-c1nc(Nc2cc(F)cc(CS(C)(=N)=NC#N)c2)ncc1F (racemic)", 28.8]
]}

Below: the item to evaluate.
So, `COc1cc(F)ccc1-c1nc(Nc2cc(CS(C)(=N)=N)cc(S(F)(F)(F)(F)F)c2)ncc1F` ? Its Papp A→B at 2 h, 2 µM was 33.3

----------
Can you tell me log10 solubility thermodynamic at 24 h for the items I'm about to list?
# EXPERIMENT_NOTES: Equilibrium shake flask solubility, high throughput from DMSO solution (Method 4a)
# Assay type: physicochemical
# SETTINGS: phosphate buffer pH 6.5 with 1% DMSO, aqueous buffer, phosphate buffer pH 6.5, 24 hrs, room temperature
Hello, just confirming the data are log10 of solubility thermodynamic at 24 h with units of µg/mL.

Past entries and their recorded results:
{"columns": ["COMPOUND", "ASSAY_READOUT", "VALUE_MEASURED"],
 "data": [
  ["CS(=N)(=N)Cc1cc(Nc2ncc(F)c(-c3ccc(F)cc3F)n2)cc(S(F)(F)(F)(F)F)c1", "log10 solubility thermodynamic at 24 h", 0.08],
  ["COc1cc(F)ccc1-c1nc(Nc2cc(F)cc(CS(C)(=N)=NCCCO)c2)ncc1F (racemic)", "log10 solubility thermodynamic at 24 h", 2.41],
  ["CN=S(C)(=N)Cc1cc(F)cc(Nc2ncc(F)c(-c3ccc(F)cc3OC)n2)c1 (racemic)", "log10 solubility thermodynamic at 24 h", 1.99],
  ["COc1cc(F)ccc1-c1nc(Nc2cc(F)cc(CS(C)(=N)=N)c2)ncc1F", "log10 solubility thermodynamic at 24 h", 2.19],
  ["COc1cc(F)ccc1-c1nc(Nc2cc(CS(C)(=N)=N)cc(S(F)(F)(F)(F)F)c2)ncc1F", "log10 solubility thermodynamic at 24 h", 0.34]
]}

// log10 solubility thermodynamic at 24 h value for COc1cc(F)ccc1-c1nc(Nc2cc(F)cc(CS(C)(=N)=Nc3ccccc3)c2)ncc1F (racemic) : 0.15

----------
# EXPERIMENT_NOTES: Caco-2 permeation assay (Method 5)
# Assay type: in vitro ADME
# SETTINGS: human, Caco-2, pH 7.2
ASSAY_READOUT: efflux ratio at 2 h, 2 µM
Numbers only.

So, `CS(=N)(=N)Cc1cc(Nc2ncc(F)c(-c3ccc(F)cc3F)n2)cc(S(F)(F)(F)(F)F)c1` ? Its efflux ratio at 2 h, 2 µM was 1.1

----------
# Test system: HeLa-MaTu-ADR cells
# EXPERIMENT_NOTES: Proliferation assay, HeLa-MaTu-ADR (crystal violet)
# Format: cell-based
# SETTINGS: Homo sapiens, 96 h, 4 days, read-out: Inhibition of HeLa-MaTu-ADR cell proliferation IC50
ASSAY_READOUT: IC50 (nM)
Answers are plain numbers, in nM.

Field: example entries. Status: answers known.
{"columns": ["COMPOUND", "ASSAY_TARGET", "IC50 (nM)"],
 "data": [
  ["COc1cc(F)ccc1-c1nc(Nc2cc(CS(C)(=N)=N)cc(S(F)(F)(F)(F)F)c2)ncc1F [Example 8]", "HeLa-MaTu-ADR cells", 194],
  ["CN=S(C)(=N)Cc1cc(F)cc(Nc2ncc(F)c(-c3ccc(F)cc3OC)n2)c1 (racemic) [Example 2]", "HeLa-MaTu-ADR cells", 793]
]}

Can you give me IC50 for all of these, one by one?
1. COc1cc(F)ccc1-c1nc(Nc2cc(F)cc(CS(C)(=N)=Nc3ccccc3)c2)ncc1F (racemic) [Example 3]
2. COc1cc(F)ccc1-c1nc(Nc2cc(F)cc(CS(C)(=N)=N)c2)ncc1F [Example 1]
3. C#CCN=S(C)(=N)Cc1cc(F)cc(Nc2ncc(F)c(-c3ccc(F)cc3OC)n2)c1 (racemic) [Example 4]
4. COc1cc(F)ccc1-c1nc(Nc2cc(F)cc(CS(C)(=N)=NC#N)c2)ncc1F (racemic) [Example 5]

**Result**
1. 863
2. 327
3. 696
4. 80

----------
Would you kindly list pIC50 for each of these compounds?
# ASSAY_TARGET: CDK2/CycE (Homo sapiens, UniProt P24941)
# EXPERIMENT_NOTES: CDK2/CycE kinase assay (TR-FRET, Method 2a)
Give bare numbers, as −log10 of the molar value.

// input: 2 compounds below; output: pIC50 for each
1. CS(=N)(=N)Cc1cc(Nc2ncc(F)c(-c3ccc(F)cc3F)n2)cc(S(F)(F)(F)(F)F)c1
2. COc1cc(F)ccc1-c1nc(Nc2cc(F)cc(CS(C)(=N)=Nc3ccccc3)c2)ncc1F (racemic)

**Result**
[5.64, 5.85]

----------
# ASSAY_TARGET: CDK2/CycE (Homo sapiens)
# EXPERIMENT_NOTES: CDK2/CycE high ATP kinase assay (TR-FRET, Method 2b)
criterion met if IC50 is below 4 µM. criterion not met if not; exact matches included in criterion not met.

Answered examples (5):
{"columns": ["COMPOUND", "CLASS"],
 "data": [
  ["CN=S(C)(=N)Cc1cc(F)cc(Nc2ncc(F)c(-c3ccc(F)cc3OC)n2)c1 (racemic) [Example 2]", "criterion not met"],
  ["CS(=N)(=N)Cc1cc(Nc2ncc(F)c(-c3ccc(F)cc3F)n2)cc(S(F)(F)(F)(F)F)c1 [Example 7]", "criterion not met"],
  ["COc1cc(F)ccc1-c1nc(Nc2cc(F)cc(CS(C)(=N)=NC#N)c2)ncc1F (racemic) [Example 5]", "criterion met"],
  ["COc1cc(F)ccc1-c1nc(Nc2cc(CS(C)(=N)=N)cc(S(F)(F)(F)(F)F)c2)ncc1F [Example 8]", "criterion met"],
  ["C#CCN=S(C)(=N)Cc1cc(F)cc(Nc2ncc(F)c(-c3ccc(F)cc3OC)n2)c1 (racemic) [Example 4]", "criterion not met"]
]}

**Query** Threshold test, IC50 < 4 µM: COc1cc(F)ccc1-c1nc(Nc2cc(F)cc(CS(C)(=N)=NCCCO)c2)ncc1F (racemic) [Example 6]
**Result** criterion not met

----------
# ASSAY_TARGET: CDK9/CycT1 (Homo sapiens)
# Sequence (P50750 whole entry): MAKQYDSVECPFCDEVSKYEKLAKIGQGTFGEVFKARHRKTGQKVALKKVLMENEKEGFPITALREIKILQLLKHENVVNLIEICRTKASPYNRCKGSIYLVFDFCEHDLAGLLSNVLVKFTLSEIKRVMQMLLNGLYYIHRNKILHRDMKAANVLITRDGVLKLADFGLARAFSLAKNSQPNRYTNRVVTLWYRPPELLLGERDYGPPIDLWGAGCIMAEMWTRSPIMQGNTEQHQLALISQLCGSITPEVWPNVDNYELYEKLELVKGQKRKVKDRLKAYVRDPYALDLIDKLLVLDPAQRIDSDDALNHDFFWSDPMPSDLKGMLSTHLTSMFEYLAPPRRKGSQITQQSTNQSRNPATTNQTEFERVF
# Sequence (O60563 whole entry partner): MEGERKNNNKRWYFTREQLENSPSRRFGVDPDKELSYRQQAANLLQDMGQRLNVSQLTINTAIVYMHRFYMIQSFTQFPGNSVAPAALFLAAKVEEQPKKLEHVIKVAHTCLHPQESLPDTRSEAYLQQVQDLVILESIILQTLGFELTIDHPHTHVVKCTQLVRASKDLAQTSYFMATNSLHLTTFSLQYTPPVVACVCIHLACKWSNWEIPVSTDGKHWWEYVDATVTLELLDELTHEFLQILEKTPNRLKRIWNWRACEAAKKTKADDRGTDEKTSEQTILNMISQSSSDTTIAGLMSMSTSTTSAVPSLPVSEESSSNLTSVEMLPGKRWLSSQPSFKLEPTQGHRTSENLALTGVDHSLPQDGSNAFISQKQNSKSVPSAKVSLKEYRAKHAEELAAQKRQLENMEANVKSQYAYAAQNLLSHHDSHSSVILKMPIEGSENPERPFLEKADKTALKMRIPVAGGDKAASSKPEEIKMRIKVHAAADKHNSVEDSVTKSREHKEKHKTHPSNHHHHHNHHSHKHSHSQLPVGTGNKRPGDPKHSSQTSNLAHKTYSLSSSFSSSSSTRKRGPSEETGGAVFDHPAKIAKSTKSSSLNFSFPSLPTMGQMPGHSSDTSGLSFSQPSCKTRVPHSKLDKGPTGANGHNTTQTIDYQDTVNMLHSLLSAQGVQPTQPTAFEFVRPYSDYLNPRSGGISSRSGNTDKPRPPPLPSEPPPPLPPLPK
ASSAY_READOUT: IC50 (nM)
Give bare numbers, in nM.

Here CS(=N)(=N)Cc1cc(Nc2ncc(F)c(-c3ccc(F)cc3F)n2)cc(S(F)(F)(F)(F)F)c1 [Example 7] was tested on CDK9/CycT1 (Homo sapiens), and its IC50 came to 26

----------
# Test system: B16F10 cells
# EXPERIMENT_NOTES: Proliferation assay, B16F10 (crystal violet)
# Type: cell-based
# SETTINGS: Mus musculus, B16-F10, 96 h; B16F10, 4 days; read-out: Inhibition of B16F10 cell proliferation IC50
ASSAY_READOUT: IC50 (nM)
Numbers only, in nM.

Would you be so kind as to report IC50 for each listed record?
1. COc1cc(F)ccc1-c1nc(Nc2cc(F)cc(CS(C)(=N)=Nc3ccccc3)c2)ncc1F (racemic) [Example 3]
2. COc1cc(F)ccc1-c1nc(Nc2cc(CS(C)(=N)=N)cc(S(F)(F)(F)(F)F)c2)ncc1F [Example 8]
3. COc1cc(F)ccc1-c1nc(Nc2cc(F)cc(CS(C)(=N)=N)c2)ncc1F [Example 1]

**Result**
1. 1270
2. 237
3. 532

Batch of 2 compounds: report IC50 for each.
1. C#CCN=S(C)(=N)Cc1cc(F)cc(Nc2ncc(F)c(-c3ccc(F)cc3OC)n2)c1 (racemic) [Example 4]
2. COc1cc(F)ccc1-c1nc(Nc2cc(F)cc(CS(C)(=N)=NC#N)c2)ncc1F (racemic) [Example 5]

**Result**
[1130, 122]

IC50 for CN=S(C)(=N)Cc1cc(F)cc(Nc2ncc(F)c(-c3ccc(F)cc3OC)n2)c1 (racemic) [Example 2] is 1120

----------
# EXPERIMENT_NOTES: Thermodynamic solubility in water from powder (Method 4b)
# Type: physicochemical
# SETTINGS: aqueous buffer, thermodynamic from solid, phosphate buffer pH 6.5, 24 hrs, room temperature
ASSAY_READOUT: solubility thermodynamic at 24 h (µg/mL)
One number for each entry, in µg/mL.

Quick note, solubility thermodynamic at 24 h for COc1cc(F)ccc1-c1nc(Nc2cc(F)cc(CS(C)(=N)=N)c2)ncc1F [Example 1] landed at 91
